- settings: 313.15 K; 101.33 kPa; Liquid; Symmetrical Wheatstone bridge
measuredMetric: electrical conductivity (S/m)

{"compound": "CCCCn1cc[n+](C)c1.F[B-](F)(F)F [1-butyl-3-methylimidazolium tetrafluoroborate]", "assayResult": 0.691}
{"compound": "CCn1cc[n+](C)c1.N#CN=C=[N-] [1-ethyl-3-methylimidazolium dicyanamide]", "assayResult": 4.23}
{"compound": "CCn1cc[n+](C)c1.F[B-](F)(F)F [1-ethyl-3-methylimidazolium tetrafluoroborate]", "assayResult": 2.47}
{"compound": "CCn1cc[n+](C)c1.O=S(=O)([N-]S(=O)(=O)C(F)(F)F)C(F)(F)F", "assayResult": 1.41}
